Assay: clinical
Format: in vivo, human
Conditions: both sexes, human, in vivo, po, Tmax, Median
metric name: Tmax (h)
Give bare numbers, in h.

Look up and report measured Tmax for this entry: `C[C@H](CCC(=O)NCCS(=O)(=O)O)[C@H]1CC[C@H]2[C@@H]3[C@@H](O)C[C@@H]4C[C@H](O)CC[C@]4(C)[C@H]3CC[C@]12C` 4.5

----------
Assay: clinical
Assay type: in vivo, human
Details: both sexes, human, in vivo, Steady-state plasma concentration
Give measured concentration at 1 h for each item. Keep answers brief.
One number for each entry, in ng/mL.

C[C@H](CCC(=O)O)[C@H]1CC[C@H]2[C@@H]3[C@@H](O)C[C@@H]4C[C@H](O)CC[C@]4(C)[C@H]3CC[C@]12C [UDCA, ursodeoxycholic acid] = 910

Field: concentration at 1 h. Fill in for each record below.
1. C[C@H](CCC(=O)NCC(=O)O)[C@H]1CC[C@H]2[C@@H]3[C@@H](O)C[C@@H]4C[C@H](O)CC[C@]4(C)[C@H]3CC[C@]12C [GUDCA, glycoursodeoxycholic acid]
2. C[C@H](CCC(=O)NCCS(=O)(=O)O)[C@H]1CC[C@H]2[C@@H]3[C@@H](O)C[C@@H]4C[C@H](O)CC[C@]4(C)[C@H]3CC[C@]12C [TURSO, taurursodiol]

1070
448

----------
Experiment: Phase I single dose oral AMX0035 fasted/fed plasma pharmacokinetics and food effect (Protocol A35-002)
Format: in vivo, human
Settings: both sexes, human, in vivo, single dose AMX0035 fed; Median; read-out: Cmax
metric name: Cmax (ng/mL)
Give bare numbers, in ng/mL.

State its Cmax for this compound: O=C(O)Cc1ccccc1 [PAA, phenylacetate] 16000

----------
Assay: Phase I single dose oral AMX0035 fasted/fed plasma pharmacokinetics and food effect (Protocol A35-002)
Format: in vivo, human
Conditions: both sexes, human, in vivo; non parametric analysis, PK analysis subset; Fasted; read-out: Tmax Median
metric name: Tmax (h)
One number for each entry, in h.

Return Tmax for the following compound: O=C(O)Cc1ccccc1 [PAA, phenylacetate] 2.5

----------
Assay: clinical
Assay type: in vivo, human
Conditions: both sexes, human, in vivo, po, AUC(0-last), Geometric Mean
metric name: AUC(0-t) (ng·h/mL)
Give bare numbers, in ng·h/mL.

Query AUC(0-t) for C[C@H](CCC(=O)NCC(=O)O)[C@H]1CC[C@H]2[C@@H]3[C@@H](O)C[C@@H]4C[C@H](O)CC[C@]4(C)[C@H]3CC[C@]12C [GUDCA, glycoursodeoxycholic acid] 4140

----------
Test: Phase I single dose oral AMX0035 fasted/fed plasma pharmacokinetics and food effect (Protocol A35-002)
Type: in vivo, human
Conditions: both sexes, human, in vivo, single dose AMX0035 fasted; Geometric Mean; read-out: AUC(0-inf)
Description: • Protocol AMX3500: sparse sampling in 87 subjects with ALS. Approximately 2 samples are collected for each subject, 1 or 4 hours post dose following 12 and 24 weeks of treatment. • Protocol A35-002: rich sampling in 14 healthy adults. Approximately 21 samples are collected over 24 hours for each subject on two occasions, once following a high fat meal and the other under fasting conditions. […] Any departures from the intended regimen were recorded in the eCRFs. […]
metric name: AUC(0-inf) (ng·h/mL)
Give bare numbers, in ng·h/mL.

Annotate the molecule O=C(O)Cc1ccccc1 [PAA, phenylacetate] with its measured AUC(0-inf). 83400
